# testSystem: human muscarinic M1 receptor (Homo sapiens, UniProt P11229)
# Sequence (P11229 whole entry): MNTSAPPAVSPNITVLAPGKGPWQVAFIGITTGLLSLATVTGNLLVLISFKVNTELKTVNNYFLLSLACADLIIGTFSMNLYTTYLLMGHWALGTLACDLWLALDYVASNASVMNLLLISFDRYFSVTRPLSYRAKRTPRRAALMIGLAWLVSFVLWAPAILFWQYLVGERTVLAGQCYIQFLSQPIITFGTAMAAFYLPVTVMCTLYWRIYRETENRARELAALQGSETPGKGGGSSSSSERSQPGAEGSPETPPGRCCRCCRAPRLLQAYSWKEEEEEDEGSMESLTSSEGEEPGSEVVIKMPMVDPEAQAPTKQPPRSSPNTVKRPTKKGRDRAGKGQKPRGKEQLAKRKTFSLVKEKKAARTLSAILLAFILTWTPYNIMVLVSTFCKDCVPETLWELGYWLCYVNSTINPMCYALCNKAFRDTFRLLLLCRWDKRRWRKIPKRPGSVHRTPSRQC
# measurementDescription: Alphascreen Surefire phospho-ERK1/2 functional assay, M1
# Format: cell-based
# cond: CHO, read-out: M1 % Emax cf. ACh, CHO cells stably expressing human M1; Emax relative to ACh
quantityName: Emax (%)
Give the value in % but do not write % after it.

# compound, Emax (%)
records = [
    ("CCOC(=O)N[C@H]1CCN(C2CCC(C#N)(c3cccc(OC)c3)CC2)C1 (single isomer, unassigned) [1-11 Isomer 2]", 99),
    ("CCOC(=O)N1CCCN(C2CCC(C#N)(c3ccc(OC)cn3)CC2)CC1 (single isomer, unassigned) [3-19 Isomer 2]", 101),
]

The compound CCOC(=O)N1CCCN(C2CCC3(CC2)C(=O)Nc2ccc(C#N)cc23)CC1 (single isomer, unassigned) [4-14 isomer 1] , when measured on human muscarinic M1 receptor (Homo sapiens, UniProt P11229), yielded Emax of 76

The compound Cc1ccc2c(c1)NC(=O)C21CCC(N2CCC[C@@H](c3nc(C)no3)C2)CC1 (single isomer, unassigned) [22-4 Isomer 1] , when measured on human muscarinic M1 receptor (Homo sapiens, UniProt P11229), yielded Emax of 76

The compound CCOC(=O)N[C@@H]1CCN(C2CCC(C#N)(c3ccccc3)CC2)C1 (single isomer, unassigned) [1-2 Isomer 2] , when measured on human muscarinic M1 receptor (Homo sapiens, UniProt P11229), yielded Emax of 102

The compound CCOC(=O)NCC1CCN(C2CCC(C#N)(c3ccccc3)CC2)CC1 (single isomer, unassigned) [6-2-Isomer 2] , when measured on human muscarinic M1 receptor (Homo sapiens, UniProt P11229), yielded Emax of 129

The compound CCOC(=O)N1CCCN(C2CCC3(CC2)C(=O)Nc2cc(OC)ccc23)CC1 (single isomer, unassigned) [4-11 isomer 2] , when measured on human muscarinic M1 receptor (Homo sapiens, UniProt P11229), yielded Emax of 107

The compound Cc1noc([C@@H]2CCCN(C3CCC4(CC3)C(=O)Nc3ccccc34)C2)n1 (single isomer, unassigned) [22-1 Isomer 1] , when measured on human muscarinic M1 receptor (Homo sapiens, UniProt P11229), yielded Emax of 83

The compound O=C1Nc2ccccc2C12CCC(N[C@@H]1CC[C@H](c3nc(C(F)(F)F)no3)C1)CC2 (single isomer, unassigned) [24-1 Isomer 1] , when measured on human muscarinic M1 receptor (Homo sapiens, UniProt P11229), yielded Emax of 89

The compound N#CC1(c2ccccc2)CCC(N2CCCN(C(=O)OCCF)CC2)CC1 (mixture of isomers) [3-29 mixture of isomers] , when measured on human muscarinic M1 receptor (Homo sapiens, UniProt P11229), yielded Emax of 75

The compound CCOC(=O)N[C@H]1CCN(C2CCC3(CC2)C(=O)Nc2cc(OC)ccc23)C1 (single isomer, unassigned) [2-9 isomer 1] , when measured on human muscarinic M1 receptor (Homo sapiens, UniProt P11229), yielded Emax of 77

The compound CCOC(=O)N1CCCN(C2CCC3(CC2)C(=O)Nc2ncc(OC)cc23)CC1 (single isomer, unassigned) [4-17 isomer 2] , when measured on human muscarinic M1 receptor (Homo sapiens, UniProt P11229), yielded Emax of 89

The compound CCOC(=O)N[C@H]1CCN(C2CCC(C#N)(c3ccc(Cl)cn3)CC2)C1 (single isomer, unassigned) [1-15 Isomer 2] , when measured on human muscarinic M1 receptor (Homo sapiens, UniProt P11229), yielded Emax of 39

The compound CCOC(=O)N1CC2CN(C3CCC(C#N)(c4ccccc4)CC3)CCC21 (single isomer, unassigned) [17-1 Isomer 2] , when measured on human muscarinic M1 receptor (Homo sapiens, UniProt P11229), yielded Emax of 111

The compound CCOC(=O)N1CCCN(C2CCC(C#N)(c3ccc(OC)cc3)CC2)CC1 (mixture of isomers) [3-9 mixture of isomers] , when measured on human muscarinic M1 receptor (Homo sapiens, UniProt P11229), yielded Emax of 98
